# Tested on: Clostridium sporogenes DSM 1664
# Protocol description: growth (OD595) fold change vs plate DMSO controls (fold change (ratio)); higher = more growth
# Details: incubation time: 27 h, anaerobic, 37 °C
Counter-ions that a name gives are not always drawn.
Measurement kind: growth
Answer with a bare number; do not write a unit.

Example cases with answers are listed next.
INSERT INTO results (compound, tested_target, measurement_kind, readout_number) VALUES
  ('CC(=O)Nc1ccc(OC(=O)c2ccccc2O)cc1 [Acetaminosalol] (20 µM)', 'Clostridium sporogenes DSM 1664', 'growth', 0.904),
  ('CC(C(=O)O)c1ccc2c(c1)Cc1cccnc1O2 (stereo not drawn) [Pranoprofen] (20 µM)', 'Clostridium sporogenes DSM 1664', 'growth', 1.01),
  ('CC(C)[N+](C)(CCOC(=O)C1c2ccccc2Oc2ccccc21)C(C)C [Propantheline bromide] (20 µM)', 'Clostridium sporogenes DSM 1664', 'growth', 1.03),
  ('C[C@H](N[C@@H](CCc1ccccc1)C(=O)O)C(=O)N1CCC[C@H]1C(=O)O [Enalaprilat dihydrate] (20 µM)', 'Clostridium sporogenes DSM 1664', 'growth', 0.89),
  ('NCCc1c[nH]cn1 [Histamine dihydrochloride] (20 µM)', 'Clostridium sporogenes DSM 1664', 'growth', 0.927);

Given O=C(CCCN1CCC(O)(c2ccc(Br)cc2)CC1)c1ccc(F)cc1 [Bromperidol] (20 µM) , state its recorded growth. 0.952

Can you check C[C@H](O)C(=O)Nc1c(I)c(C(=O)NC(CO)CO)c(I)c(C(=O)NC(CO)CO)c1I [Iopamidol] (20 µM) next? 1.2

Can you check CCc1cc(C(N)=S)ccn1 [Ethionamide] (20 µM) next? 1.09

Can you check O=P(O)(O)C(Cl)(Cl)P(=O)(O)O [Clodronate disodium] (20 µM) next? 0.99

Can you check COc1cccc2c1C(=O)c1c(O)c3c(c(O)c1C2=O)C[C@@](O)(C(=O)CO)C[C@@H]3O[C@H]1C[C@H](N)[C@H](O)[C@H](C)O1 [Doxorubicin hydrochloride] (20 µM) next? 0.843

Can you check Cc1c(F)c(N2CCNC(C)C2)cc2c1c(=O)c(C(=O)O)cn2C1CC1 (stereo not drawn) [Grepafloxacin] (20 µM) next? 0.0227

Can you check COc1ccccc1N1CCN(CC(O)COc2cccc3ccccc23)CC1 (stereo not drawn) [Naftopidil dihydrochloride] (20 µM) next? 1.11

Can you check Cc1nc(C)c(Cl)c(O)c1Cl [Clopidol] (20 µM) next? 1.18

Can you check CC(C)(C)C(=O)OCOC(=O)[C@@H]1N2C(=O)[C@@H](/N=C/N3CCCCCC3)[C@H]2SC1(C)C [Pivmecillinam hydrochloride] (20 µM) next? 0.954

Can you check CC(C)(S)C(N)C(=O)O (racemic) [D,L-Penicillamine] (20 µM) next? 1.05

Can you check CN1CCCC(CC2c3ccccc3Sc3ccccc32)C1 (stereo not drawn) [Metixene hydrochloride] (20 µM) next? 1.02

Can you check Cc1ccc2c(Cl)cc(Cl)c(O)c2n1 [Chlorquinaldol] (20 µM) next? 0.726

Can you check CCCCCCNC(=O)n1cc(F)c(=O)[nH]c1=O [Carmofur] (20 µM) next? 0.985

Can you check CC(=O)Nc1ccccc1 [Acetanilide] (20 µM) next? 1.1

Can you check Clc1ccc(COC(Cn2ccnc2)c2ccc(Cl)cc2Cl)c(Cl)c1 (stereo not drawn) [Miconazole] (20 µM) next? 1.25

Can you check NC(=O)c1cccnc1 [Nicotinamide] (20 µM) next? 0.909

Can you check Fc1ccc([C@@H]2CCNC[C@H]2COc2ccc3c(c2)OCO3)cc1 [Paroxetine hydrochloride] (20 µM) next? 1.01

Can you check COc1ccc(C(=O)c2ccc(C)cc2)c(O)c1 [Mexenone] (20 µM) next? 0.644

Cited source: the supplement of paper PMC12494721
